# system tested: CFH18-20 (human complement factor H CCP18-20) with myc tag and His-tag (human) (UniProt P08603)
# Sequence (P08603 1046-1231): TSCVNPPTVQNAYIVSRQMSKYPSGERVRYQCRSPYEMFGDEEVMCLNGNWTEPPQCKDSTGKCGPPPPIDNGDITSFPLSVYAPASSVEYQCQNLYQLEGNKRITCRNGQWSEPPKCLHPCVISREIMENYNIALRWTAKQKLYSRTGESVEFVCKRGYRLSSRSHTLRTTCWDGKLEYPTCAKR
# experiment summary: ITC; CFH18-20 in the cell (5-15 uM), VHH4 or mutants in the syringe (50-150 uM), 20 injections; PBS pH 7.4, 25 °C; iTC200
Give measured dH for each item. Keep answers brief.
One number for each entry, in kcal/mol.

Below, each entry is followed by its recorded dH result.
binder: VHH4 W123A (VHH) VHH: QVQLVESGGGLVQAGGSLRLSCAASGLTVDDYAIGWFRQAPGKEREGVSCISSSNGSTYYADSVKGRFTISSDNAKNTAYLQMNSLKPEDTAVYYCAAAVSPNLECGTGPFGIYASYYGMDYAGQGTQVTVSS
dH [kcal/mol]: -20.9
--
binder: VHH4 G119A (VHH) VHH: QVQLVESGGGLVQAGGSLRLSCAASGLTVDDYAIGWFRQAPGKEREGVSCISSSNGSTYYADSVKGRFTISSDNAKNTAYLQMNSLKPEDTAVYYCAAAVSPNLECGTGPFGIYASYYAMDYWGQGTQVTVSS
dH [kcal/mol]: -19.4

Dear reader, for each entry below, please note its dH.
1. VHH4 T108A (VHH) VHH: QVQLVESGGGLVQAGGSLRLSCAASGLTVDDYAIGWFRQAPGKEREGVSCISSSNGSTYYADSVKGRFTISSDNAKNTAYLQMNSLKPEDTAVYYCAAAVSPNLECGAGPFGIYASYYGMDYWGQGTQVTVSS
2. VHH4 (VHH, alpaca VHH selected by phage display; CDR3 is Ala99-Tyr122; Disulfide bond between Cys50 and Cys106; also called VHH4 WT; WT; source: E. coli BL21 (DE3), purified (Ni-NTA, SEC)) VHH: QVQLVESGGGLVQAGGSLRLSCAASGLTVDDYAIGWFRQAPGKEREGVSCISSSNGSTYYADSVKGRFTISSDNAKNTAYLQMNSLKPEDTAVYYCAAAVSPNLECGTGPFGIYASYYGMDYWGQGTQVTVSS
3. VHH4 P102A (VHH) VHH: QVQLVESGGGLVQAGGSLRLSCAASGLTVDDYAIGWFRQAPGKEREGVSCISSSNGSTYYADSVKGRFTISSDNAKNTAYLQMNSLKPEDTAVYYCAAAVSANLECGTGPFGIYASYYGMDYWGQGTQVTVSS
4. VHH4 Y95A (VHH) VHH: QVQLVESGGGLVQAGGSLRLSCAASGLTVDDYAIGWFRQAPGKEREGVSCISSSNGSTYYADSVKGRFTISSDNAKNTAYLQMNSLKPEDTAVYACAAAVSPNLECGTGPFGIYASYYGMDYWGQGTQVTVSS

Response:
[-27.2, -28.9, -29.6, -28.2]
